Listing of entries alongside the reported IF.
target: flavin binding site of complex I (IF) (Rattus norvegicus, UniProt Q5XIH3); construct: freshly isolated muscle mitochondria were assayed; from tissue; host or cells: rat skeletal muscle mitochondria (Wistar, Harlan Laboratories); assay: High-throughput screen: ROS production from flavin binding site of complex I (IF); format: biochemical; conditions: Table 9; percent change in ROS from DMSO controls
Sequence (Q5XIH3 21-464 limits assumed, one chain of several): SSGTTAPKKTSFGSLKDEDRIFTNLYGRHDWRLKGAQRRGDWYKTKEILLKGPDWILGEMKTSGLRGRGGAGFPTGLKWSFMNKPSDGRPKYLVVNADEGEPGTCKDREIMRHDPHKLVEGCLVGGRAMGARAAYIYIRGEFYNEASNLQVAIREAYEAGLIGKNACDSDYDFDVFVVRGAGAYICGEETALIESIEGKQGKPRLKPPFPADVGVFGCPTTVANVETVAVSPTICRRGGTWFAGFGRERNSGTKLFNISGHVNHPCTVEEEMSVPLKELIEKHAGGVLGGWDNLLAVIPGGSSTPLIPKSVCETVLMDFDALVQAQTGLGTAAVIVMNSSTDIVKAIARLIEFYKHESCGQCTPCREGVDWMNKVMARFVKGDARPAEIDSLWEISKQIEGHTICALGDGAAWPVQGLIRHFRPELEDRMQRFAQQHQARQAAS
Property Name: IF

Molecule: Oc1nnc(Cc2ccncc2)c2ccccc12
Observed: 2.6
--
Molecule: CCN1CCN(C/C=C/c2ccc(N(C)C)cc2)CC1
Observed: −6.5
--
Molecule: Cl.OC12CCCCC1C(c1cccc(Cl)c1)NCC2 (centres unmarked)
Observed: 5.5
--
Molecule: COc1ccc(-c2ccccc2)cc1NCC1=CC[C@H]2C[C@@H]1C2(C)C
Observed: 6.6
--
Molecule: COc1cc(CN(CCN(C)C)Cc2ccccc2)cc(OC)c1
Observed: −7.6
